biological target: AAK1 (amino acids T27-A365) (Homo sapiens, UniProt Q2M2I8); construct: against AAK1 (amino acids T27-A365); 6His (N, cleaved yes); test: AAK1 pSENs assay; type: biochemical
Sequence (Q2M2I8 27-365): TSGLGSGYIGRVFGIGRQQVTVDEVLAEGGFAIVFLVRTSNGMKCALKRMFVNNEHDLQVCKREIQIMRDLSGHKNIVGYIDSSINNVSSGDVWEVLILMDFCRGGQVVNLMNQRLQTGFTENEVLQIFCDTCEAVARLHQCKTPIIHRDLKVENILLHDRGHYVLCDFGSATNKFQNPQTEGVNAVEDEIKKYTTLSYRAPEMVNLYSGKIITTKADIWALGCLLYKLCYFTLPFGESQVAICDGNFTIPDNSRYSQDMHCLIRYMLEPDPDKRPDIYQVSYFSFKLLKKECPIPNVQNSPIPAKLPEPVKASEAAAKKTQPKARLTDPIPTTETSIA
pIC50: −log10 of the molar value.
ENDPOINT NAME: pIC50

Some entries whose results are on file:
SMILES STR	ENDPOINT NAME	READOUT VALUE
CC(C)Oc1ncccc1-c1cnn2ccc(N3CCN(C(=O)OC4(C)COC4)CC3)nc12	pIC50	6.82 to 7.29
[2H]C([2H])([2H])N1C[C@@H](OC(=O)N2CCN(c3ccn4ncc(-c5cccnc5OC5CC5)c4n3)CC2)CC1=O	pIC50	7.30 to 9.00

Value of measured pIC50 for the entry c1cc2nc(N3CCNCC3)ccn2n1 : < 5.82

====

Attribute: IC50
target: BIKE (amino acids S38-E345) (K320A, K321A) (Homo sapiens, UniProt Q9NSY1, K320A/K321A); construct: against BIKE (amino acids S38-E345) (K320A, K321A); 6His (N, cleaved yes); test: BIKE pSENs assay; type: biochemical; conditions: class symbols; read-out: BIKE pSENs: IC50
Sequence (Q9NSY1 38-345 K320A/K321A): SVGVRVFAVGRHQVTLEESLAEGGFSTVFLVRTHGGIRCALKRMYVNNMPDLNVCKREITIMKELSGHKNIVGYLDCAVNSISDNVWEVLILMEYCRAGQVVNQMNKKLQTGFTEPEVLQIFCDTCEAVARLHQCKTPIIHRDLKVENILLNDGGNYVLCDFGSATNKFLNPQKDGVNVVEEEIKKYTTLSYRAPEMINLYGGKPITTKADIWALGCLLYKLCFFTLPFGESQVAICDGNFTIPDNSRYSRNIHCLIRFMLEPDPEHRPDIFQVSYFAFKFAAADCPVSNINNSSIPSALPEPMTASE

COMPOUND	IC50
O=C(O[C@H]1CC(=O)N(C2CCNCC2)C1)N1CCN(c2ccn3ncc(-c4cccnc4OC4CC4)c3n2)CC1	51 to 150 nM
CN1C[C@@H](OC(=O)N2CCN(c3ccn4ncc(-c5cccnc5O)c4n3)CC2)CC1=O	501 to 1500 nM
CN1C[C@@H](OC(=O)N2CCN(c3nc4c(-c5cccnc5OC5CC5)cnn4cc3F)CC2)CC1=O	51 to 150 nM

Lab entry: BIKE (amino acids S38-E345) (K320A, K321A) (Homo sapiens, UniProt Q9NSY1, K320A/K321A) assay, compound O=C1C[C@H](OC(=O)N2CCN(c3ccn4ncc(-c5cccnc5OC5COC5)c4n3)CC2)CN1 , IC50 = 151 to 500 nM

Lab entry: BIKE (amino acids S38-E345) (K320A, K321A) (Homo sapiens, UniProt Q9NSY1, K320A/K321A) assay, compound CC1(OC(=O)N2CCN(c3ccn4ncc(-c5ccc(C(N)=O)cc5)c4n3)CC2)COC1 , IC50 = 51 to 150 nM

Lab entry: BIKE (amino acids S38-E345) (K320A, K321A) (Homo sapiens, UniProt Q9NSY1, K320A/K321A) assay, compound COc1ccccc1-c1cnn2ccc(N3CCN(C(=O)O[C@H]4CO[C@H]5OCC[C@H]54)CC3)nc12 , IC50 = 151 to 500 nM

Lab entry: BIKE (amino acids S38-E345) (K320A, K321A) (Homo sapiens, UniProt Q9NSY1, K320A/K321A) assay, compound CN1C[C@@H](OC(=O)N2CCN(c3nc4c(-c5cccnc5OC5CCOC5)cnn4cc3F)CC2)CC1=O (some centres unmarked) , IC50 = 151 to 500 nM

Lab entry: BIKE (amino acids S38-E345) (K320A, K321A) (Homo sapiens, UniProt Q9NSY1, K320A/K321A) assay, compound CC(=O)N1CC(Oc2ncccc2-c2cnn3ccc(N4CCN(C(=O)O[C@@H]5CNC(=O)C5)CC4)nc23)C1 , IC50 = 501 to 1500 nM

Lab entry: BIKE (amino acids S38-E345) (K320A, K321A) (Homo sapiens, UniProt Q9NSY1, K320A/K321A) assay, compound C#CC1(OC(=O)N2CCN(c3ccn4ncc(-c5cccnc5OC)c4n3)CC2)CCNC1 (centres unmarked) , IC50 = 1 to 50 nM

Lab entry: BIKE (amino acids S38-E345) (K320A, K321A) (Homo sapiens, UniProt Q9NSY1, K320A/K321A) assay, compound COc1ncccc1-c1cnn2ccc(N3CCN(C(=O)OC4(C)CCNC4)CC3)nc12 (centres unmarked) , IC50 = 1 to 50 nM

Lab entry: BIKE (amino acids S38-E345) (K320A, K321A) (Homo sapiens, UniProt Q9NSY1, K320A/K321A) assay, compound C[C@@H]1CN(c2ccn3ncc(-c4cccnc4OC4CC4)c3n2)CCN1C(=O)O[C@@H]1CNC(=O)C1 , IC50 = 151 to 500 nM

Lab entry: BIKE (amino acids S38-E345) (K320A, K321A) (Homo sapiens, UniProt Q9NSY1, K320A/K321A) assay, compound O=C1C[C@@H](OC(=O)N2CCN(c3ccn4ncc(-c5cccnc5OC5CC5)c4n3)CC2)CN1 , IC50 = 151 to 500 nM

Lab entry: BIKE (amino acids S38-E345) (K320A, K321A) (Homo sapiens, UniProt Q9NSY1, K320A/K321A) assay, compound CC(C)(C)OC(=O)N1CC(Oc2ncccc2-c2cnn3ccc(N4CCN(C(=O)O[C@@H]5CNC(=O)C5)CC4)nc23)C1 , IC50 = 151 to 500 nM

Lab entry: BIKE (amino acids S38-E345) (K320A, K321A) (Homo sapiens, UniProt Q9NSY1, K320A/K321A) assay, compound C#C[C@]1(OC(=O)N2CCN(c3ccn4ncc(-c5cccnc5OC5CC5)c4n3)CC2)CCNC1 , IC50 = 151 to 500 nM

Lab entry: BIKE (amino acids S38-E345) (K320A, K321A) (Homo sapiens, UniProt Q9NSY1, K320A/K321A) assay, compound CC(C)N1C[C@@H](OC(=O)N2CCN(c3ccn4ncc(-c5cccnc5OC5CC5)c4n3)CC2)CC1=O , IC50 = 501 to 1500 nM

Lab entry: BIKE (amino acids S38-E345) (K320A, K321A) (Homo sapiens, UniProt Q9NSY1, K320A/K321A) assay, compound COc1ncccc1-c1cnn2ccc(N3CCN(C(=O)OC4CCNC4)CC3)nc12 (centres unmarked) , IC50 = 1 to 50 nM

====

Attribute: pIC50
target: AAK1 (amino acids T27-A365) (Homo sapiens, UniProt Q2M2I8); construct: against AAK1 (amino acids T27-A365); 6His (N, cleaved yes); assay: AAK1 pSENs assay; format: biochemical; conditions: class symbols; read-out: AAK1 pSENs: EIC50
pIC50: −log10 of the molar value.

COMPOUND	READOUT VALUE
O=C1C[C@H](OC(=O)N[C@H]2CCN(c3ccn4ncc(-c5cccnc5OC5CC5)c4n3)C2)CN1	6.30 to 6.82
CN(C)CCN1CC[C@@](C)(OC(=O)N2CCN(c3ccn4ncc(-c5cccnc5OC5CC5)c4n3)CC2)C1	7.30 to 9.00
CC(=O)N1CC(Oc2ncccc2-c2cnn3ccc(NCCN(C)C(=O)OC(C)(C)C)nc23)C1	7.30 to 9.00
COCCN1C[C@@H](OC(=O)N2CCN(c3ccn4ncc(-c5cccnc5OC5CC5)c4n3)CC2)CC1=O	7.30 to 9.00
COC(=O)[C@@H]1CN(c2ccn3ncc(-c4cccnc4OC4CC4)c3n2)CCN1C(=O)O[C@@H]1CNC(=O)C1	6.30 to 6.82

Value of measured pIC50 for the entry COC(=O)N1CC(Oc2ncccc2-c2cnn3ccc(N4CCN(C(=O)O[C@@H]5CC(=O)N(C6COC6)C5)CC4)nc23)C1 : 5.82 to 6.30

Value of measured pIC50 for the entry Clc1cnn2ccc(N3CCNCC3)nc12 : < 5.82

Value of measured pIC50 for the entry O=C1C[C@H](OC(=O)N2CCN(c3ccn4ncc(-c5cccnc5NC5CNC5)c4n3)CC2)CN1 : < 5.82

Value of measured pIC50 for the entry COc1ncccc1-c1cnn2ccc(N3CCN(C(=O)OC4CNC(=O)C4)CC3)nc12 (centres unmarked) : 7.30 to 9.00

Value of measured pIC50 for the entry C#CC1(OC(=O)N2CCN(c3ccn4ncc(-c5cccnc5OC)c4n3)CC2)CCNC1 (centres unmarked) : 7.30 to 9.00

Value of measured pIC50 for the entry C[C@@]1(OC(=O)N2CCN(c3ccn4ncc(-c5cccnc5OC5CC5)c4n3)CC2)CCNC1 : 7.30 to 9.00

Value of measured pIC50 for the entry O=C(O[C@H]1CO[C@H]2OCC[C@H]21)N1CCN(c2ccn3ncc(-c4cnccn4)c3n2)CC1 : 6.30 to 6.82
